- ASSAY SYSTEM: Tyrosine-protein kinase Lck (Homo sapiens, UniProt P06239)
- Sequence (P06239 whole entry): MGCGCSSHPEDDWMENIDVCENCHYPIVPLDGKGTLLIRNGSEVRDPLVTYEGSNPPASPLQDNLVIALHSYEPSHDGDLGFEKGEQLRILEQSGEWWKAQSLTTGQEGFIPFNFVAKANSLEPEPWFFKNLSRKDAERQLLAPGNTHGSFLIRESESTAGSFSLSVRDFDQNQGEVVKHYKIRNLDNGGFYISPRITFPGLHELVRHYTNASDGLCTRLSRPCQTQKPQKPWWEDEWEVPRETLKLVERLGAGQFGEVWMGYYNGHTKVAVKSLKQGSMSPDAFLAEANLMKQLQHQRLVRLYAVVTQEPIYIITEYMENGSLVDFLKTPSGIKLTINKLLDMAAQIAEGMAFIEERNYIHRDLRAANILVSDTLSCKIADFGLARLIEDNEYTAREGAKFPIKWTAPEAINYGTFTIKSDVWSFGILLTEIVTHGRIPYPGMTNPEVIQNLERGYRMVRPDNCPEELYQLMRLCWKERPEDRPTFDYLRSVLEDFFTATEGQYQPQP
pIC50: −log10 of the molar value.
OBSERVABLE: pIC50

Cc1cn2c(-c3cn[nH]c3)cnc2c(Nc2cc(CN3CCOCC3(C)C)ns2)n1: 6.42
Cc1cc(Nc2nc(C)cn3c(-c4cn[nH]c4)cnc23)sn1: 6.25
